# MEASUREMENT_DESCRIPTION: Tmax in Wistar rat at 50 mg/kg, po administered as single dose measured after 1 to 24 hrs by reverse-phase HPLC method
# Format: ADME, organism-based
# TEST_SETTINGS: in vivo
Tmax values by entry
Respond with the bare value in h.

Cc1ccc(-c2ccc(F)cc2)cc1NC(=O)COCC(=O)Nc1ccc(Cl)cc1C(=O)O : 1
O=C(COCC(=O)Nc1ccc(Cl)cc1C(=O)[O-])Nc1cccc(-c2ccc(F)cc2)c1.[Na+] : 1
Cn1cc(-c2cccc(NC(=O)COCC(=O)Nc3ccc(Cl)cc3C(=O)O)c2)cn1 : 2
O=C(COCC(=O)Nc1ccc(Cl)cc1C(=O)O)Nc1cccc(C(F)(F)F)c1 : 1
O=C(COCC(=O)Nc1ccc(Cl)cc1C(=O)O)Nc1cccc(-c2ccncc2)c1 : 6
O=C(COCC(=O)Nc1ccc(Cl)cc1C(=O)[O-])Nc1cccc(-c2cccnc2)c1.[Na+] : 2

Query block: Report measured Tmax; entry is O=C(COCC(=O)Nc1ccc(Cl)cc1C(=O)O)Nc1ccc(-c2ccncc2)cc1
Result block: 6

Query block: Report measured Tmax; entry is O=C(COCC(=O)N1CCN(C(c2ccccc2)c2ccccc2)CC1)Nc1ccc(Cl)cc1C(=O)O
Result block: 2

Query block: Report measured Tmax; entry is O=C(COCC(=O)Nc1ccccc1-c1ccc(F)cc1)Nc1ccc(Cl)cc1C(=O)O
Result block: 1
